# Species: Rattus norvegicus
# Protocol Summary: DrugMatrix - Regimen: Daily Repeat
# Format: toxicity, organism-based, Sprague-Dawley
# Parameters: regimen Daily Repeat, gender Male, age 6-8 weeks
# Condition Details: in vivo, po, 0 mg/kg, 72 h, tissue Blood, route oral GAVAGE, dose level Control, time 3 day, vehicle .5 % CMC
Experimental Readout: HEMATOCRIT (%)
Record the value in %, omitting the unit from your answer.

Below, each entry is followed by its recorded HEMATOCRIT result.
Compound	Val
CNC(=C[N+](=O)[O-])NCCSCc1ccc(CN(C)C)o1 [RANITIDINE]	36.57
O=C1CCC(N2C(=O)c3ccccc3C2=O)C(=O)N1 (stereo unspecified) [THALIDOMIDE]	44.65
CN1CCC(=C2c3ccccc3C=Cc3ccccc32)CC1 [CYPROHEPTADINE]	38.8
Clc1ccc2c(c1)C(N1CCNCC1)=Nc1ccccc1O2 [AMOXAPINE]	34.32
CO[C@H]1/C=C/O[C@@]2(C)Oc3c(C)c(O)c4c(c3C2=O)C2=NC3(CCN(CC(C)C)CC3)NC2=C(NC(=O)/C(C)=C\C=C\[C@H](C)[C@H](O)[C@@H](C)[C@@H](O)[C@@H](C)[C@H](OC(C)=O)[C@@H]1C)C4=O [RIFABUTIN]	36.57
OC(CCN1CCCCC1)(c1ccccc1)C1CCCCC1 (stereo unspecified) [TRIHEXYPHENIDYL]	35.58
CC(=O)CC(c1ccccc1)c1c(O)c2ccccc2oc1=O (stereo unspecified) [WARFARIN]	34.05
N=C(N)NC(=O)c1nc(Cl)c(N)nc1N [AMILORIDE]	38.08
C[C@](O)(CS(=O)(=O)c1ccc(F)cc1)C(=O)Nc1ccc(C#N)c(C(F)(F)F)c1 [(R)-BICALUTAMIDE]	34.75
CC(C)[C@H]1CC[C@H](C(=O)N[C@H](Cc2ccccc2)C(=O)O)CC1 [NATEGLINIDE]	33.58

**Query** Report measured HEMATOCRIT; entry is C[C@]1(Cn2ccnn2)[C@H](C(=O)O)N2C(=O)C[C@H]2S1(=O)=O [TAZOBACTAM]
**Result** 36.52

**Query** Report measured HEMATOCRIT; entry is CC[C@@H](CO)NCCN[C@@H](CC)CO [ETHAMBUTOL]
**Result** 38.08

**Query** Report measured HEMATOCRIT; entry is Cc1onc(-c2ccccc2)c1-c1ccc(S(N)(=O)=O)cc1 [VALDECOXIB]
**Result** 45.44

**Query** Report measured HEMATOCRIT; entry is O=[N+]([O-])c1ccccc1 [NITROBENZENE]
**Result** 41.88

**Query** Report measured HEMATOCRIT; entry is C#C[C@]1(O)CC[C@H]2[C@@H]3CCc4cc(OC)ccc4[C@H]3CC[C@@]21C [MESTRANOL]
**Result** 36.57

**Query** Report measured HEMATOCRIT; entry is CN1C(=O)COc2c(C(=O)NC3CN4CCC3CC4)cc(Cl)cc21 (stereo unspecified) [AZASETRON]
**Result** 34.43
